- Test system: α1 (non-selective)
- Procedure summary: In vitro radioligand binding assay, α1 (non-selective), [3H]prazosin
- Design: concentration or dose not given beside the values
- Applied conditions: rat cerebral cortex membranes
Threshold rule: α1 percent inhibition of specific binding greater than or equal to 60% is Y; below that, N.

Study these solved cases before continuing.
1) Clc1ccc2c(c1)[C@H]([C@@H]1CCCN1)OCC2 : Y
2) Fc1ccc2c(c1)CCO[C@H]2[C@@H]1CCN1 : Y
3) Fc1cccc2c1CCO[C@@H]2[C@@H]1CCN1 : Y
4) Fc1cccc2c1CCO[C@@H]2[C@H]1CCN1 : Y
5) Fc1ccc2c(c1)CCO[C@H]2[C@@H]1CCCN1 : Y

Next up:
-- ask Is it the case that Fc1cccc2c1[C@H]([C@@H]1CCCN1)OCC2 has α1 percent inhibition of specific binding reaching or exceeding 60%?
-- reply N

----------
Measured 5HT7 percent inhibition of specific binding, listed per entry.
- Assayed system: 5-HT7 (Homo sapiens, UniProt P34969)
- Construct: expressed in transfected cells; host or cells: CHO cells
- Sequence (P34969 whole entry): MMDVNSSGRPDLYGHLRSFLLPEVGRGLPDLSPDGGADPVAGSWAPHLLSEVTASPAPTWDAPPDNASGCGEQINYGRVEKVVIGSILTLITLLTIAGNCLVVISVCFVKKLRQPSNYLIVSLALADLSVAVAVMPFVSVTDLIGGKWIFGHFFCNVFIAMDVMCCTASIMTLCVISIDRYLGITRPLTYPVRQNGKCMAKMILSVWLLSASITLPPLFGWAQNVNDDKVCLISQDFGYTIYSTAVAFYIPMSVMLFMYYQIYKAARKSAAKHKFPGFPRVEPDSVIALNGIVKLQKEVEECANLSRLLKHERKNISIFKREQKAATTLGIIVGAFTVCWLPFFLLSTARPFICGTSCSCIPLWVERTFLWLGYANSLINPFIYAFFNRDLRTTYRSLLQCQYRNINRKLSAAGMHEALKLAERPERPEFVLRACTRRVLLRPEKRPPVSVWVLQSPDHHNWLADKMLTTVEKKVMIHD
- Procedure summary: In vitro radioligand binding assay, 5-HT7, [3H]LSD
- Design: concentration or dose not given beside the values
- Applied conditions: human recombinant (CHO cells)
Give your result as the value with the unit written after it.

1) Fc1cccc2c1[C@H]([C@@H]1CCN1)OCC2 : 99%

Here Fc1ccc2c(c1)CCO[C@H]2[C@@H]1CCCN1 was tested on 5-HT7 (Homo sapiens, UniProt P34969), and its 5HT7 percent inhibition of specific binding came to 80%

Here Fc1ccc2c(c1)[C@H]([C@@H]1CCCN1)OCC2 was tested on 5-HT7 (Homo sapiens, UniProt P34969), and its 5HT7 percent inhibition of specific binding came to 60%

Here Fc1cccc2c1[C@H]([C@@H]1CCCN1)OCC2 was tested on 5-HT7 (Homo sapiens, UniProt P34969), and its 5HT7 percent inhibition of specific binding came to 88%

Here Clc1ccc2c(c1)[C@H]([C@@H]1CCCN1)OCC2 was tested on 5-HT7 (Homo sapiens, UniProt P34969), and its 5HT7 percent inhibition of specific binding came to 52%

----------
- Test system: mice
- Procedure summary: Neuropharmacological assay (SmartCube), behavioral signature of compound-treated mice
- Assay type: in vivo
- Applied conditions: i.p. 15 min before behavioral test, most efficacious dose(s) of 3 doses
Test readout: CE: cognitive enhancer (probability that behavioral signature matches class)

1) Clc1ccc2c(c1)[C@H]([C@@H]1CCCN1)OCC2 : +++ (25% ≤ +++ <50%)
2) c1cc2c(c3c1CO[C@H]3[C@@H]1CCCN1)OCO2 : +++ (25% ≤ +++ <50%)
3) Cc1cccc2c1[C@H]([C@H]1CCCN1)OCC2 : ++ (5% ≤ ++ <25%)
4) c1ccc2c(c1)CCO[C@H]2C1CNC1 [Compound I-115, (S)-3-(isochroman-1-yl)azetidine] : ++ (5% ≤ ++ <25%)
5) N#Cc1ccc2c(c1)[C@H]([C@H]1CCCN1)OCC2 : ++ (5% ≤ ++ <25%)

// sample Fc1ccc2c(c1)CCO[C@H]2[C@H]1CCCN1 , its CE: cognitive enhancer (probability that behavioral signature matches class) was + (LOQ ≤ + <5%)

// sample c1cc(-c2ccc3c(c2)CCO[C@H]3[C@@H]2CCCN2)on1 , its CE: cognitive enhancer (probability that behavioral signature matches class) was ++ (5% ≤ ++ <25%)
